target: soluble G614 HexaPro spike ectodomain (SARS-CoV-2, UniProt P0DTC2 14-1208)
VALUE_KIND: pKd
Worth noting: pKd values are minus log10 of concentrations stated in mol/L.

Request: Need pKd of AB-6 full-length IgG1 (antibody, V domains shown) VH: EVQLEESGTVLARPGASVKMSCKASGYTFTSYWMHWIKQRPGQGLEWIGAIYPGNSDTNYNQKFKDKAKLTAVKSTSSAYMELSSLTNEDSAVYFCTREGIPQLTRTLDYWGQGTSVTVSS VL: DILMTQSPSSLSASLGERVSLTCRASQEISGYLSWLQEKPDGTIKRLIYAASTLDSGVPKRFSGSRSGSDYSLTISSLESEDFADYYCLQYLSYPWTFGGGTKLEIK , thanks.
Response: 9.20

Request: Follow-up entry: AB-9 full-length IgG1 (antibody, V domains shown) VH: EVQLEESGTVLARPGASVKMSCKASGYTFTSYWMHWIKQRPGQGLEWIGAIYPGNSDTNYNQKFKDKAKLTAVTSTSSAYMELSSLTNEDSAVYFCTREGIPQLLRTLDYWGQGTSVTVSS VL: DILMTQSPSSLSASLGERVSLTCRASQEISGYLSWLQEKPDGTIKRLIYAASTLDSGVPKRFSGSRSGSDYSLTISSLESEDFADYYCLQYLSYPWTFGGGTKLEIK
Response: 8.92

Data credit: patent US12473560
